These data points were gathered from ChEMBL document CHEMBL5625223.

log10 Ki: recorded values
Target: Adenosine receptor A3 (Homo sapiens, UniProt P0DMS8)
Sequence (P0DMS8 whole entry): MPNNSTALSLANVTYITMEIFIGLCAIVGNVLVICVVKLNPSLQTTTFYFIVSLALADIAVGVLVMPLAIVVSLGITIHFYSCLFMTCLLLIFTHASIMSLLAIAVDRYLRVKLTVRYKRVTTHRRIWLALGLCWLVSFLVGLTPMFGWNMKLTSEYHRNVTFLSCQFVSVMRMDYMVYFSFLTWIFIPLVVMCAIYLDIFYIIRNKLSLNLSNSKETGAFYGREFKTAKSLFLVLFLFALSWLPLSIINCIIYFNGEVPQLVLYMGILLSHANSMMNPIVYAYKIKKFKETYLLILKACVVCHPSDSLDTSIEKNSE
Each number you see is log10 of Ki, and the unit inside the log is µM.

line.notation	log10 Ki
CCOC(=O)[C@@]12C[C@@H]1[C@@H](n1cnc3c(NC(C4CCCC4)C4CCCC4)nc(Cl)nc31)[C@H](O)[C@@H]2O	0.99
O[C@H]1[C@H](n2cnc3c(NC(C4CC4)C4CC4)nc(Cl)nc32)[C@H]2C[C@@]2(CF)[C@H]1O	0.57
CSC[C@@]12C[C@@H]1[C@@H](n1cnc3c(NC(C4CCCC4)C4CCCC4)nc(SC)nc31)[C@H](O)[C@@H]2O	0.82

Query: # return recorded log10 Ki for entry `CCSC[C@@]12C[C@@H]1[C@@H](n1cnc3c(NC(C4CCCC4)C4CCCC4)nc(Cl)nc31)[C@H](O)[C@@H]2O`
Reply: 0.80
